- System: anti-M2 human monoclonal antibody Z3G1
- Type: binding
Below, each entry is listed with its recorded Signal (peptides that bind to Z3G1).
No unit in the answer, please; the number alone is enough.

- substance: "1295 (MSLLWEVETPIRNEWGCRCN; epitope peptide) [compound 1295]"
  targetOrTestSystem: "anti-M2 human monoclonal antibody Z3G1"
  measuredProperty: "Signal (peptides that bind to Z3G1)"
  observedMeasurement: 2531
- substance: "1291 (MSLLQEVETPIRNEWGCRCN; epitope peptide) [compound 1291]"
  targetOrTestSystem: "anti-M2 human monoclonal antibody Z3G1"
  measuredProperty: "Signal (peptides that bind to Z3G1)"
  observedMeasurement: 2792
- substance: "1392 (SLLCEVETPCRNEWG; epitope peptide) [compound 1392]"
  targetOrTestSystem: "anti-M2 human monoclonal antibody Z3G1"
  measuredProperty: "Signal (peptides that bind to Z3G1)"
  observedMeasurement: 2465

Request: # lookup: Signal (peptides that bind to Z3G1) of 1360 (CLLCEVETPIRNE; epitope peptide) [compound 1360]
Result: 2314

Request: # lookup: Signal (peptides that bind to Z3G1) of 383 (CSLLTEVGCSLLTEC; epitope peptide) [compound 383]
Result: 2486

Provenance of the data: patent US8932597B2
